Tested on: DMS 273 small cell lung
protocol-notes: NCI tumour cell line growth inhibition, 48 h
As shown below, each of these molecules has a reported TGI value.

# molecule, TGI
records = [
    ("CN=C(NC#N)N(Cc1ccccc1)Cc1ccccc1", "> 100 µM"),
    ("O=NN(CCCl)C(=O)NC1CCC(C(=O)O)CC1 (centres undefined)", "> 100 µM"),
    ("COc1cc([C@@H]2c3cc4c(cc3[C@@H](NC(=O)c3cccc(N)c3)C3COC(=O)[C@@H]32)OCO4)cc(OC)c1O (some centres undefined)", "12.1 µM"),
    ("O=[N+]([O-])c1cccc2nc3ccccc3c(NCCO)c12", "0.0481 µM"),
    ("O=C(CC1(O)C(=O)Nc2ccc([N+](=O)[O-])cc21)c1ccc2ccccc2c1 (centres undefined)", "> 100 µM"),
    ("Cc1nc2nnnn2c2c1C(=O)Nc1ccccc1N2", "> 100 µM"),
    ("c1ccc(C(c2ccccc2)c2ccncc2)cc1", "> 100 µM"),
    ("COc1ccc(NCC#N)cc1", "> 100 µM"),
]

Next molecule, please.
// recorded TGI for C[C@]12CC[C@@H]3c4ccc(O)cc4CC[C@H]3[C@@H]1CC[C@@H]2OC(=O)CCC1CCCC1 : 27.7 µM

====

As shown below, each of these compounds has a reported TGI value.
System: A549 NSCLC
protocol-notes: NCI tumour cell line growth inhibition, 48 h

# compound, system-under-test, value-type, experimental-value
records = [
    ("CC(C)(C)C1=NC(=S)SC2=NC(=O)C3(NN21)c1ccccc1-c1ccccc13", "A549 NSCLC", "TGI", "> 10 µM"),
    ("COC(=O)c1nc(-c2ccc(Cl)c(Cl)c2)nc2ccc(Cl)cc12", "A549 NSCLC", "TGI", "> 100 µM"),
]

// recorded TGI for CCC(/C=C(C)/C=C/C(=O)c1c(O)c(-c2ccc(O)cc2)c[nH]c1=O)CO (stereo not given) : 93.8 µM

// recorded TGI for O=[N+]([O-])c1ccc2nc3n(c2c1)C(c1c(F)cccc1F)SC3 (stereo not given) : > 10 µM

// recorded TGI for COc1ccc2c(c1)O[C@@H]1[C@@H](OC3OC(CO)C(O)C(O)C3O)Oc3cc(OC)c(OC)cc3[C@]1(O)C2=O (stereo not given in full) : > 100 µM

// recorded TGI for Cc1nc(C(N)=S)sc1C(=O)CC(=O)C(=O)Nc1c(C(C)C)cccc1C(C)C : > 100 µM

// recorded TGI for COc1ccc(-c2cc3c(OC)c(OC)c(OC)cc3oc2=O)cc1 : > 100 µM

// recorded TGI for Nc1nc2cc(-c3ccc4ncc(C(=O)N5CCOCC5)n4c3)ccc2o1 : > 100 µM

// recorded TGI for O=C(O)CCc1nc2c(n1Cc1ccccc1)C(=O)c1ccccc1C2=O : > 100 µM

// recorded TGI for c1ccc(C(c2ccccc2)c2ccncc2)cc1 : > 100 µM

====

Test system: RPMI-8226 leukemia
protocol-notes: NCI tumour cell line growth inhibition, 48 h
As shown below, each of these compounds has a reported GI50 value.

The following compounds have reported results that may help.
# compound, GI50
measured = [
    ("CCC(CC)COC(=O)[C@H](C)N[P@](=O)(OC[C@H]1O[C@@](C#N)(c2ccc3c(N)ncnn23)[C@H](O)[C@@H]1O)Oc1ccccc1", "1020 nM"),
    ("CC(C)(Oc1ccc(Cl)cc1)C(=O)NC1C2CC3CC1CC(NS(C)(=O)=O)(C3)C2 (stereo unspecified)", "20900 nM"),
    ("CCN(CC)CCCN1C(=O)c2c(c(C)c3c(oc4ccc(O)cc43)c2C)C1=O", "1850 nM"),
    ("C=CCOC1=CC(=O)c2ccccc2C1=O", "3200 nM"),
    ("C=C1C(=O)O[C@H]2[C@H]1CC/C(COC(=O)NCc1ccc(Cn3c(=O)sn(CCI)c3=O)cc1)=C\\CC[C@@]1(C)O[C@@H]21", "1980 nM"),
]

// recorded GI50 for COc1cccc(-n2ncc3c(N/N=C/c4ccc(F)cc4)ncnc32)c1 : > 25000 nM

====

As shown below, each of these compounds has a reported TGI value.
System: SN12C renal
protocol-notes: NCI tumour cell line growth inhibition, 48 h

# compound, TGI
data = [
    ("COC(=O)c1nc(-c2ccc(Cl)c(Cl)c2)nc2ccc(Cl)cc12", "> 100 µM"),
    ("CC1(C)N([O-])[N+](=O)C1(C)Br (stereo not drawn)", "> 100 µM"),
]

Next compound, please.
// recorded TGI for CC1CN=C(N(C)C(=O)Nc2ccc(Cl)cc2)S1 (stereo not drawn) : > 100 µM

====

Tested on: OVCAR-3 ovarian
protocol-notes: NCI tumour cell line growth inhibition, 48 h
value-type: TGI (µM)
Form entry: value (µM) — number only.

# smiles-input, experimental-value
records = [
    ("COc1ccc(-c2nc3ccc([N+](=O)[O-])cc3c(=O)[nH]2)cc1", 64.3),
]

// recorded TGI for CC[C@@]1(O)C(=O)OCc2c1cc1n(c2=O)Cc2cc3c([N+](=O)[O-])c(OC)ccc3nc2-1 : 1.34

// recorded TGI for CCCCC/C=C/C(=O)CCc1ccc(O)c(OC)c1 : 12.9

// recorded TGI for Cc1nc(C(N)=S)sc1C(=O)CC(=O)C(=O)Nc1c(C(C)C)cccc1C(C)C : 42

====

Test system: HL-60(TB) leukemia
protocol-notes: NCI tumour cell line growth inhibition, 48 h; in the data active means GI50 below about 0.43 µM; inactive means the rest
API: response.call in active, inactive

Look over these answered cases.
# smiles-input, class-assignment
data = [
    ("O=c1ccc(N=Nc2ccccc2)ccc1Cl", "inactive"),
    ("COc1ccc(-c2cc3c(OC)c(OC)c(OC)cc3oc2=O)cc1", "inactive"),
    ("COc1ccc(/C=C2\\CS(=O)(=O)C/C(=C\\c3ccc(OC)cc3)C2=O)cc1", "inactive"),
]

[in] GET /call?item= COc1cc(-c2cc(/C=C3\C(=O)Nc4ccc(Cl)cc43)[nH]n2)cc(OC)c1OC returns the recorded outcome of this test.
[out] inactive

[in] GET /call?item= Cn1cc(C2=C(c3cn(C)c4cc(C(=O)O)ccc34)C(=O)NC2=O)c2ccccc21 returns the recorded outcome of this test.
[out] inactive

[in] GET /call?item= Cc1nnc([S-])o1.[Au+].c1ccc([PH+](c2ccccc2)c2ccccc2)cc1 returns the recorded outcome of this test.
[out] inactive

[in] GET /call?item= COc1cc(-c2cncn2-c2ccc(-c3nc4ccc(F)cc4s3)cc2)ccc1F returns the recorded outcome of this test.
[out] inactive

[in] GET /call?item= O=C1c2[nH]cc(CN3CCN(CCO)CC3)c2C(=O)c2c1c(O)c1ccccc1c2O returns the recorded outcome of this test.
[out] inactive

[in] GET /call?item= CNCCCNc1c2cc(OC)ccc2nc2cccc([N+](=O)[O-])c12 returns the recorded outcome of this test.
[out] active

[in] GET /call?item= O[C@H]1C=C2[C@H](C[C@@H]1O)CN1C[C@H]2c2cc3c(cc21)OCO3 returns the recorded outcome of this test.
[out] inactive

[in] GET /call?item= Oc1ccc(/C=C/c2ccc(O)cc2)cc1 returns the recorded outcome of this test.
[out] active

[in] GET /call?item= CCN(CC)CCn1c(N)c(-c2nc3ccccc3n2C)c2nc(C#N)c(C#N)nc21 returns the recorded outcome of this test.
[out] inactive

[in] GET /call?item= COc1ccc2c(c1)CC[C@@H]1[C@@H]2CC[C@]2(C)C(c3ccsc3)=C(/C=C/C(=O)c3ccccc3)C[C@@H]12 returns the recorded outcome of this test.
[out] inactive

[in] GET /call?item= CCCCSSC(=S)N(CC)CC returns the recorded outcome of this test.
[out] inactive

[in] GET /call?item= CCC(CC)COC(=O)[C@H](C)N[P@](=O)(OC[C@H]1O[C@@](C#N)(c2ccc3c(N)ncnn23)[C@H](O)[C@@H]1O)Oc1ccccc1 returns the recorded outcome of this test.
[out] inactive

[in] GET /call?item= COc1ccc(-c2cnoc2-c2ccc(OC)cc2O)cc1 returns the recorded outcome of this test.
[out] inactive

[in] GET /call?item= COc1cccc(-n2ncc3c(N/N=C/c4ccc(F)cc4)ncnc32)c1 returns the recorded outcome of this test.
[out] inactive

====

System: IGROV1 ovarian
protocol-notes: NCI tumour cell line growth inhibition, 48 h
As shown below, each of these molecules has a reported GI50 value.

# smiles-input, GI50
measured = [
    ("NS(=O)(=O)c1ccc(Nc2ncc(-c3ccccc3)o2)cc1", "> 25 µM"),
    ("CCC(CC)COC(=O)[C@H](C)N[P@](=O)(OC[C@H]1O[C@@](C#N)(c2ccc3c(N)ncnn23)[C@H](O)[C@@H]1O)Oc1ccccc1", "2.72 µM"),
    ("O[C@H]1C=C2[C@H](C[C@@H]1O)CN1C[C@H]2c2cc3c(cc21)OCO3", "62 µM"),
]

Next molecule, please.
// recorded GI50 for C=C(C)[C@@H]1CC[C@]2(COC(C)=O)CC[C@]3(C)[C@H](CC[C@@H]4[C@@]5(C)CCCN(C(C)=O)C(C)(C)[C@@H]5CC[C@]43C)[C@@H]12 : 1.81 µM

This collection of values is drawn from PubChem BioAssay (NCI).
